experiment: Inhibition of HCV NS5B polymerase; parameters: species or system Hepacivirus hominis
Below: a set of entries, each annotated with reported pIC50.
Bear in mind: pIC50 is minus log10 of a mol/L concentration; give just that figure.

Solved cases (3 shown):
Asked: Name the recorded pIC50 of the molecule listed here: `O=C(N[C@@H](Cc1c[nH]c2ccc(O)cc12)c1cscn1)c1ccc2c(c1)nc(-c1ccoc1)n2C1CCCCC1`
Given back: 6.52

Asked: Give the reported value of pIC50 for this record: `O=C(O)COc1ccc2[nH]cc(C[C@H](NC(=O)c3ccc4c(c3)nc(-c3ccoc3)n4C3CCCCC3)C(=O)O)c2c1`
Given back: 7.57

Asked: Output pIC50 of `CN(C)C(=O)[C@H](Cc1ccc(O)cc1)NC(=O)c1ccc2c(c1)nc(-c1ccoc1)n2C1CCCCC1`
Given back: 5.31

Next molecule, please.
Asked: // Input: `NC(=O)[C@H](Cc1c[nH]c2ccc(O)cc12)NC(=O)c1ccc2c(c1)nc(-c1ccoc1)n2C1CCCCC1` . Output its pIC50 only.
Given back: 6.66

###

assay: Inhibition of HCV NS5B polymerase; parameters: species or system Hepacivirus hominis
Reported values of pIC50 for individual entries
Please keep in mind that pIC50 is minus log10 of the molar concentration; only the number is needed.

Asked: Tell me its pIC50 given `CN(C)CCCNC(=O)[C@H](Cc1ccc(O)cc1)NC(=O)c1ccc2c(c1)nc(-c1ccoc1)n2C1CCCCC1` as the entry.
Given back: 5.72

Asked: Name the recorded pIC50 of the item `CN(C)c1nc([C@H](Cc2c[nH]c3ccc(O)cc23)NC(=O)c2ccc3c(c2)nc(-c2ccoc2)n3C2CCCCC2)cs1` in your answer.
Given back: 6.05

Asked: Given `O=C(N[C@@H](Cc1ccc(O)cc1)C(=O)NCCN1CCOCC1)c1ccc2c(c1)nc(-c1ccoc1)n2C1CCCCC1` , respond with its pIC50.
Given back: 5.49

Asked: Specify measured pIC50 for `Cn1cc(C[C@H](NC(=O)c2ccc3c(c2)nc(-c2ccoc2)n3C2CCCCC2)c2csc(N)n2)c2cc(O)ccc21` .
Given back: 6.05
